- experimental-target: PI3Kα (complex of human p110α and human p85α) (Homo sapiens (Human))
- Sequence (P42336 whole entry, the tested form may be a part): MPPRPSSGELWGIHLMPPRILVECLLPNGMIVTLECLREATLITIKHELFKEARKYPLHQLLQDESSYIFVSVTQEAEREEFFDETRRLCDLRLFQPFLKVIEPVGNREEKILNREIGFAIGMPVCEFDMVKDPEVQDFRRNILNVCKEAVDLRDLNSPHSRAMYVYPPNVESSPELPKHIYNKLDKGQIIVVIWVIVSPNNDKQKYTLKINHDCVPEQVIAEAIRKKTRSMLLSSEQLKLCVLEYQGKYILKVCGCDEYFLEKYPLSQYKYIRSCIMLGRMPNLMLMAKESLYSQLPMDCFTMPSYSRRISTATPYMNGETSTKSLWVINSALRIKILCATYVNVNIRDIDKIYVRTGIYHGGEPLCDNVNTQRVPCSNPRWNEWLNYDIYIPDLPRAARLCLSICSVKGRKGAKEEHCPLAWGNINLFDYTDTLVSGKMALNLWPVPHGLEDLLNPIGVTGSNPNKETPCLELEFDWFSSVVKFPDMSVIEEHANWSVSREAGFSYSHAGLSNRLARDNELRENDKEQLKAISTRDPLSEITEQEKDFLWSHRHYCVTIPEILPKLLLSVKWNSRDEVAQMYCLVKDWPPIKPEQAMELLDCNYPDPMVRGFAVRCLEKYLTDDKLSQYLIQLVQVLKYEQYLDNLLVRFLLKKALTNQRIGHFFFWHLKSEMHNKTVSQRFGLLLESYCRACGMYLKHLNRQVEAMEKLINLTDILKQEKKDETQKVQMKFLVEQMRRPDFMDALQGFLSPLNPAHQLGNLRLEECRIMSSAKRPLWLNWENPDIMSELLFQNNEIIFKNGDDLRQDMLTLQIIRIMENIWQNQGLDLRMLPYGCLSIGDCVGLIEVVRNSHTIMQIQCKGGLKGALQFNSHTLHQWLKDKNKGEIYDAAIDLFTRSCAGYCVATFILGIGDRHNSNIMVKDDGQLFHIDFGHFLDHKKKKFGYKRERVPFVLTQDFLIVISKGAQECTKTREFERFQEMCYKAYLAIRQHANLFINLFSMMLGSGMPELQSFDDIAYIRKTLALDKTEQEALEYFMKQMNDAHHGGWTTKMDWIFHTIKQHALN
- Sequence (P27986 whole entry partner, the tested form may be a part): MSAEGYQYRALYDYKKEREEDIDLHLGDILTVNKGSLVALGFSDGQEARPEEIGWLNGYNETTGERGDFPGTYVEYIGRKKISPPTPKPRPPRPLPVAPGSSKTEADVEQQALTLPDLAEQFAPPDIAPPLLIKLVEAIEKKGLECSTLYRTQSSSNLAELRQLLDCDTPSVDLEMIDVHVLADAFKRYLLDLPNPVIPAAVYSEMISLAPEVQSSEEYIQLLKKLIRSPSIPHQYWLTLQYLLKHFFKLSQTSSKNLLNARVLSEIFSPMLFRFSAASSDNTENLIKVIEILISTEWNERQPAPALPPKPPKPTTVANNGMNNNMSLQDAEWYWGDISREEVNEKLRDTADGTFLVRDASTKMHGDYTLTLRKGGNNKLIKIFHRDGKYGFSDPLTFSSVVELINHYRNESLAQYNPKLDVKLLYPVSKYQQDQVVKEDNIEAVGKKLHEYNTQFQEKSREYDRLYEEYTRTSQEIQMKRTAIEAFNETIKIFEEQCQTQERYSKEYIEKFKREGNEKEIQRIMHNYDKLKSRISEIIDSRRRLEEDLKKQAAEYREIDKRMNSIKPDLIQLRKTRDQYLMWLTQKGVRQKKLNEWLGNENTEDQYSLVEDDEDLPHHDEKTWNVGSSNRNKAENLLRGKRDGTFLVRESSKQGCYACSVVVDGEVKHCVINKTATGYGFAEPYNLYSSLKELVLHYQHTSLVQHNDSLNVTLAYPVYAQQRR
- measurement-protocol: PI3Kα kinase assay (HTRF-based PI3K inhibition assay);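 note: PIP3 product detected by HTRF, reading resonance energy transfer from Europium-labeled anti-GST antibody to Streptavidin-APC, as displacement of biotinylated PIP3 tracer from the GST-PH domain complex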
- stated-conditions: 10 μM ATP, 10 μM PIP2, 20 min at 22° C.; read-out: average IC50 in the PI3K alpha biochemical assay
pIC50: −log10 of the molar value. Where a name gives a salt, the structure may show the parent alone.
assay-endpoint: pIC50

compound	assay-endpoint	recorded-result
COc1c(OC[C@H](O)CN2C[C@@H](C)O[C@@H](C)C2)ccc2c1N=C(NC(=O)c1cccnc1)N1CCN=C21	pIC50	7.30 to 8.00
COc1c(OC[C@H](O)CN2CCC2)ccc2c1N=C(NC(=O)c1cccnc1)N1CCN=C21	pIC50	7.30 to 8.00
COc1c(OC[C@H](O)CN2CC3CCC(C2)O3)ccc2c1N=C(NC(=O)c1cnc(N)nc1)N1CCN=C21 [Example 28, dihydrochloride]	pIC50	> 8.00

Request: Could you tell me which pIC50 is on file for `COc1c(OC[C@H](O)CN2C[C@@H](C)O[C@@H](C)C2)ccc2c1N=C(NC(=O)c1cncs1)N1CCN=C21` ?
Response: > 8.00

Request: Which pIC50 is reported for this compound? `COc1c(OC[C@H](O)CN2CCCCC2)ccc2c1N=C(NC(=O)c1cccnc1)N1CCN=C21`
Response: > 8.00

Request: Look up pIC50: COc1c(OCC(O)CN(C)C)ccc2c1N=C(NC(=O)c1cccnc1)N1CCN=C21 (stereo not shown)
Response: > 8.00

Request: I am curious: what pIC50 value has been reported for `COc1c(OC[C@H](O)CN(C)C)ccc2c1N=C(NC(=O)c1cccnc1)N1CCN=C21` ?
Response: 7.30 to 8.00
